shrunken log2 fold change reference
Test system: Escherichia coli TOP10
Method Notes: shrunken log2 fold change of peptide-encoding DNA abundance (4.5 h post-induction vs induction); higher = less antimicrobial activity (less host growth inhibition)
Test Settings: time post-induction: 4.5 h; library: site-saturation at positions 5, 18, 19, 20

{"columns": ["Item Sequence", "shrunken log2 fold change"],
 "data": [
  ["RRIRARPPRLPRPRPRPAYVPRP", -0.118],
  ["RRIRVRPPRLPRPRPRPEFLPRP", 0.0805],
  ["RRIRNRPPRLPRPRPRPSYRPRP", -0.102],
  ["RRIRPRPPRLPRPRPRPHTFPRP", -0.667],
  ["RRIRCRPPRLPRPRPRPNIDPRP", -0.539],
  ["RRIRFRPPRLPRPRPRPDEQPRP", 0.00595],
  ["RRIRCRPPRLPRPRPRPDAVPRP", 0.0365],
  ["RRIRDRPPRLPRPRPRPSWKPRP", -0.015]
]}

* * *

Catalogue of sequences with associated shrunken log2 fold change
Test system: Escherichia coli TOP10
Method Notes: shrunken log2 fold change of peptide-encoding DNA abundance (4.5 h post-induction vs induction); higher = less antimicrobial activity (less host growth inhibition)
Test Settings: time post-induction: 4.5 h; library: site-saturation at positions 5, 18, 19, 20

{"columns": ["Item Sequence", "shrunken log2 fold change"],
 "data": [
  ["RRIRKRPPRLPRPRPRPLLFPRP", 0.176],
  ["RRIRWRPPRLPRPRPRPRMQPRP", 0.329],
  ["RRIRYRPPRLPRPRPRPDQSPRP", -0.0117],
  ["RRIRLRPPRLPRPRPRPNCYPRP", -0.422],
  ["RRIRWRPPRLPRPRPRPHQYPRP", -0.29],
  ["RRIRIRPPRLPRPRPRPSPTPRP", -0.424],
  ["RRIRMRPPRLPRPRPRPVKTPRP", 0.0113],
  ["RRIRGRPPRLPRPRPRPYPFPRP", -0.164],
  ["RRIRVRPPRLPRPRPRPTWPPRP", 0.446],
  ["RRIRGRPPRLPRPRPRPHTCPRP", 0.104],
  ["RRIRPRPPRLPRPRPRPKNPPRP", 0.0941],
  ["RRIRARPPRLPRPRPRPCLNPRP", -0.424],
  ["RRIRGRPPRLPRPRPRPKFVPRP", 0.458],
  ["RRIRRRPPRLPRPRPRPVLVPRP", 0.487],
  ["RRIRERPPRLPRPRPRPFAWPRP", 0.143]
]}

* * *

System: Escherichia coli TOP10
Method Notes: shrunken log2 fold change of peptide-encoding DNA abundance (4.5 h post-induction vs induction); higher = less antimicrobial activity (less host growth inhibition)
Test Settings: time post-induction: 4.5 h; library: site-saturation at positions 5, 18, 19, 20

{"columns": ["Item Sequence", "shrunken log2 fold change"],
 "data": [
  ["RRIRCRPPRLPRPRPRPCLTPRP", -0.17],
  ["RRIRDRPPRLPRPRPRPIMRPRP", 0.225],
  ["RRIRGRPPRLPRPRPRPCAEPRP", 1.91],
  ["RRIRWRPPRLPRPRPRPPLVPRP", 0.443],
  ["RRIRNRPPRLPRPRPRPRFQPRP", 0.0932],
  ["RRIRFRPPRLPRPRPRPMKHPRP", -0.149],
  ["RRIRFRPPRLPRPRPRPTYRPRP", "-8.67e-05"],
  ["RRIRQRPPRLPRPRPRPIHKPRP", -0.651],
  ["RRIRGRPPRLPRPRPRPDSLPRP", -0.0456],
  ["RRIRNRPPRLPRPRPRPLGMPRP", -0.109],
  ["RRIRIRPPRLPRPRPRPTMDPRP", -0.118],
  ["RRIRGRPPRLPRPRPRPWKYPRP", -0.115],
  ["RRIRDRPPRLPRPRPRPLLYPRP", 0.116],
  ["RRIRERPPRLPRPRPRPLAVPRP", -0.0594],
  ["RRIRMRPPRLPRPRPRPSTDPRP", 0.949],
  ["RRIRIRPPRLPRPRPRPVTIPRP", 0.00236],
  ["RRIRKRPPRLPRPRPRPPPTPRP", 1.11],
  ["RRIRERPPRLPRPRPRPTNAPRP", -0.0659],
  ["RRIRSRPPRLPRPRPRPHLMPRP", -0.0307],
  ["RRIRYRPPRLPRPRPRPTDEPRP", -0.00133],
  ["RRIRPRPPRLPRPRPRPVVAPRP", 0.578],
  ["RRIRMRPPRLPRPRPRPYYWPRP", -0.123],
  ["RRIRHRPPRLPRPRPRPFPCPRP", -0.0311],
  ["RRIRCRPPRLPRPRPRPPACPRP", 0.479],
  ["RRIRKRPPRLPRPRPRPVAFPRP", 0.238],
  ["RRIRQRPPRLPRPRPRPIATPRP", -0.0607],
  ["RRIRNRPPRLPRPRPRPFDPPRP", -0.805],
  ["RRIRHRPPRLPRPRPRPWHNPRP", -0.261],
  ["RRIRYRPPRLPRPRPRPVGVPRP", -0.0394],
  ["RRIRMRPPRLPRPRPRPATAPRP", 1.17],
  ["RRIRARPPRLPRPRPRPEISPRP", 0.81],
  ["RRIRSRPPRLPRPRPRPGFKPRP", 0.122]
]}

* * *

Tested on: Escherichia coli TOP10;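 further: peptides expressed intracellularly from a pBAD plasmid library in pooled LB shake-flask culture, induced with 0.3% L-arabinose, DNA abundance read by NGS, three biological replicates, DESeq2 with apeglm shrinkage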
Method Notes: shrunken log2 fold change of peptide-encoding DNA abundance (4.5 h post-induction vs induction); higher = less antimicrobial activity (less host growth inhibition)
Test Settings: time post-induction: 4.5 h; library: site-saturation at positions 5, 18, 19, 20
Please note: criterion met applies when shrunken log2 fold change is -0.08 or greater, and criterion not met applies otherwise.

{"columns": ["Item Sequence", "System", "Category Label"],
 "data": [
  ["RRIRLRPPRLPRPRPRPYDPPRP", "Escherichia coli TOP10", "criterion not met"],
  ["RRIRCRPPRLPRPRPRPTYCPRP", "Escherichia coli TOP10", "criterion not met"],
  ["RRIRERPPRLPRPRPRPFIMPRP", "Escherichia coli TOP10", "criterion not met"],
  ["RRIRERPPRLPRPRPRPIMFPRP", "Escherichia coli TOP10", "criterion not met"],
  ["RRIRWRPPRLPRPRPRPMITPRP", "Escherichia coli TOP10", "criterion met"],
  ["RRIRRRPPRLPRPRPRPARRPRP", "Escherichia coli TOP10", "criterion met"],
  ["RRIRDRPPRLPRPRPRPMECPRP", "Escherichia coli TOP10", "criterion met"],
  ["RRIRMRPPRLPRPRPRPYQAPRP", "Escherichia coli TOP10", "criterion met"],
  ["RRIRYRPPRLPRPRPRPSWPPRP", "Escherichia coli TOP10", "criterion not met"],
  ["RRIRDRPPRLPRPRPRPWSEPRP", "Escherichia coli TOP10", "criterion not met"],
  ["RRIRRRPPRLPRPRPRPFKLPRP", "Escherichia coli TOP10", "criterion met"],
  ["RRIRFRPPRLPRPRPRPNGQPRP", "Escherichia coli TOP10", "criterion met"],
  ["RRIRDRPPRLPRPRPRPSSWPRP", "Escherichia coli TOP10", "criterion met"],
  ["RRIRWRPPRLPRPRPRPICFPRP", "Escherichia coli TOP10", "criterion met"],
  ["RRIRSRPPRLPRPRPRPKNYPRP", "Escherichia coli TOP10", "criterion not met"],
  ["RRIRWRPPRLPRPRPRPYWDPRP", "Escherichia coli TOP10", "criterion not met"],
  ["RRIRKRPPRLPRPRPRPFFFPRP", "Escherichia coli TOP10", "criterion met"],
  ["RRIRTRPPRLPRPRPRPMICPRP", "Escherichia coli TOP10", "criterion met"],
  ["RRIRHRPPRLPRPRPRPYPWPRP", "Escherichia coli TOP10", "criterion not met"],
  ["RRIRPRPPRLPRPRPRPQKPPRP", "Escherichia coli TOP10", "criterion met"],
  ["RRIRIRPPRLPRPRPRPFMLPRP", "Escherichia coli TOP10", "criterion not met"],
  ["RRIRMRPPRLPRPRPRPWGWPRP", "Escherichia coli TOP10", "criterion met"],
  ["RRIRRRPPRLPRPRPRPSIYPRP", "Escherichia coli TOP10", "criterion not met"],
  ["RRIRCRPPRLPRPRPRPWCWPRP", "Escherichia coli TOP10", "criterion met"],
  ["RRIRPRPPRLPRPRPRPAQVPRP", "Escherichia coli TOP10", "criterion met"],
  ["RRIRCRPPRLPRPRPRPYIQPRP", "Escherichia coli TOP10", "criterion not met"],
  ["RRIRFRPPRLPRPRPRPIGWPRP", "Escherichia coli TOP10", "criterion met"],
  ["RRIRGRPPRLPRPRPRPDDCPRP", "Escherichia coli TOP10", "criterion met"],
  ["RRIRPRPPRLPRPRPRPVCQPRP", "Escherichia coli TOP10", "criterion not met"],
  ["RRIRERPPRLPRPRPRPMPVPRP", "Escherichia coli TOP10", "criterion not met"],
  ["RRIRVRPPRLPRPRPRPQQEPRP", "Escherichia coli TOP10", "criterion met"],
  ["RRIRERPPRLPRPRPRPIFQPRP", "Escherichia coli TOP10", "criterion met"],
  ["RRIRFRPPRLPRPRPRPASLPRP", "Escherichia coli TOP10", "criterion not met"],
  ["RRIRVRPPRLPRPRPRPCHWPRP", "Escherichia coli TOP10", "criterion met"],
  ["RRIRVRPPRLPRPRPRPQGVPRP", "Escherichia coli TOP10", "criterion not met"],
  ["RRIRMRPPRLPRPRPRPFKAPRP", "Escherichia coli TOP10", "criterion not met"],
  ["RRIRQRPPRLPRPRPRPSMQPRP", "Escherichia coli TOP10", "criterion met"],
  ["RRIRFRPPRLPRPRPRPDHQPRP", "Escherichia coli TOP10", "criterion not met"],
  ["RRIRWRPPRLPRPRPRPNPIPRP", "Escherichia coli TOP10", "criterion not met"],
  ["RRIRFRPPRLPRPRPRPEYDPRP", "Escherichia coli TOP10", "criterion met"],
  ["RRIRQRPPRLPRPRPRPEEEPRP", "Escherichia coli TOP10", "criterion met"],
  ["RRIRIRPPRLPRPRPRPGDEPRP", "Escherichia coli TOP10", "criterion met"],
  ["RRIRKRPPRLPRPRPRPEQKPRP", "Escherichia coli TOP10", "criterion met"],
  ["RRIRLRPPRLPRPRPRPQERPRP", "Escherichia coli TOP10", "criterion not met"],
  ["RRIRVRPPRLPRPRPRPMKAPRP", "Escherichia coli TOP10", "criterion met"],
  ["RRIRSRPPRLPRPRPRPNECPRP", "Escherichia coli TOP10", "criterion not met"],
  ["RRIRSRPPRLPRPRPRPCMNPRP", "Escherichia coli TOP10", "criterion not met"],
  ["RRIRFRPPRLPRPRPRPYRAPRP", "Escherichia coli TOP10", "criterion not met"],
  ["RRIRERPPRLPRPRPRPQFYPRP", "Escherichia coli TOP10", "criterion not met"],
  ["RRIRSRPPRLPRPRPRPTCNPRP", "Escherichia coli TOP10", "criterion met"],
  ["RRIRHRPPRLPRPRPRPHRYPRP", "Escherichia coli TOP10", "criterion not met"],
  ["RRIRTRPPRLPRPRPRPEPRPRP", "Escherichia coli TOP10", "criterion met"],
  ["RRIRERPPRLPRPRPRPATYPRP", "Escherichia coli TOP10", "criterion not met"],
  ["RRIRHRPPRLPRPRPRPDQYPRP", "Escherichia coli TOP10", "criterion met"],
  ["RRIRDRPPRLPRPRPRPITPPRP", "Escherichia coli TOP10", "criterion not met"],
  ["RRIRNRPPRLPRPRPRPNEEPRP", "Escherichia coli TOP10", "criterion met"],
  ["RRIRVRPPRLPRPRPRPAFFPRP", "Escherichia coli TOP10", "criterion met"],
  ["RRIRERPPRLPRPRPRPWQPPRP", "Escherichia coli TOP10", "criterion met"],
  ["RRIRHRPPRLPRPRPRPMVHPRP", "Escherichia coli TOP10", "criterion met"],
  ["RRIRMRPPRLPRPRPRPGDYPRP", "Escherichia coli TOP10", "criterion met"],
  ["RRIRWRPPRLPRPRPRPQWIPRP", "Escherichia coli TOP10", "criterion met"]
]}
